Every entry's value here was drawn from patent US20100173835A1.

# protocol: Solubility data of compounds in water over the pH range
# Assay type: physicochemical
# stated.conditions: pH 5.21
Where a SMILES comes first, the peptide text is derived from it. Bridges are numbered along the chain shown (N, C = ends). [ ]: non-standard residue; d: D form. The star is where a group is joined. C16 diacid = O=C(O)CCCCCCCCCCCCCCC(=O)*; Hyp = O=C(O)[C@@H]1C[C@@H](O)CN1; NTA = O=C(O)CN(CC(=O)O)CC(=O)*; Nle = CCCC[C@H](N)C(=O)O; AEEA = NCCOCCOCC(=O)O

molecule: CCCC[C@H](NC(=O)[C@H](CCCCNC(=O)CN(CC(=O)O)CC(=O)O)NC(=O)[C@H](CO)NC(=O)[C@H](CCC(N)=O)NC(=O)[C@H](CO)NC(=O)CNC(=O)COCCOCCNC(=O)CCCCCCCCCCCCCCC(=O)O)C(=O)N[C@H]1CCC(=O)NCCCC[C@@H](C(N)=O)NC(=O)[C@H](Cc2c[nH]c3ccccc23)NC(=O)[C@H](CCCNC(=N)N)NC(=O)[C@@H](Cc2ccccc2)NC(=O)[C@@H]2C[C@@H](O)CN2C1=O [Example 21] ({C16 diacid-AEEA}-GSQSK(NTA)[Nle]E[Hyp][dF]RWK-NH2; lactam 7-12)
solubility at 3 days, µM: 58
